meta.source: patent US11339185B2

tgt: STING AQ: His-TVMV-S-hSTING(155-341)-G230A-R293Q (Homo sapiens, UniProt Q86WV6, G230A/H232R/R293Q)
Construct: STING AQ: His-TVMV-S-hSTING(155-341)-G230A-R293Q
Sequence (Q86WV6 with tags, fused parts or gaps G230A/H232R/R293Q): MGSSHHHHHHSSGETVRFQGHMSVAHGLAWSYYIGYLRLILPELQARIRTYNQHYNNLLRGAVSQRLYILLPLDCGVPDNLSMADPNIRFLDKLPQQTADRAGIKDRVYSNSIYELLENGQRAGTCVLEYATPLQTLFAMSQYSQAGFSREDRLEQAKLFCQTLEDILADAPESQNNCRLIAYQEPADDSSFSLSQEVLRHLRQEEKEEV
runDescription: STING HTRF binding assay (time resolved FRET competition), STING AQ
testContext: 20 nM His-tagged STING AQ cytoplasmic domain, 40 nM fluorescein-labeled cGAMP analog probe, one hour; read-out: HTRF Binding Assays IC50 (μM) AQ
propertyLabel: IC50

INSERT INTO assay_data (molecule, observedvalue) VALUES
  ('Nc1ncnc2c1ncn2[C@@H]1C[C@@H]2COP(=O)(O)O[C@@H]3[C@H](O)[C@@H](COP(=O)(S)OC[C@H]21)O[C@H]3n1cnc2c(=O)n3ccnc3[nH]c21 (single isomer, unassigned)', '0.1 µM');

Below: the item to evaluate.
Form field IC50, entry O=P1(S)OC[C@@H]2[C@@H](COP(=O)(S)O[C@H]3[C@@H](F)[C@H](n4cnc5c4ncn4ccnc54)O[C@@H]3CO1)C[C@H]2n1cnc2c(Cl)ncnc21 (single isomer, unassigned) [Example 18-4] : 2.18 µM
